Assay target: human M4 muscarinic acetylcholine receptor (Homo sapiens, UniProt P08173)
Sequence (P08173 whole entry): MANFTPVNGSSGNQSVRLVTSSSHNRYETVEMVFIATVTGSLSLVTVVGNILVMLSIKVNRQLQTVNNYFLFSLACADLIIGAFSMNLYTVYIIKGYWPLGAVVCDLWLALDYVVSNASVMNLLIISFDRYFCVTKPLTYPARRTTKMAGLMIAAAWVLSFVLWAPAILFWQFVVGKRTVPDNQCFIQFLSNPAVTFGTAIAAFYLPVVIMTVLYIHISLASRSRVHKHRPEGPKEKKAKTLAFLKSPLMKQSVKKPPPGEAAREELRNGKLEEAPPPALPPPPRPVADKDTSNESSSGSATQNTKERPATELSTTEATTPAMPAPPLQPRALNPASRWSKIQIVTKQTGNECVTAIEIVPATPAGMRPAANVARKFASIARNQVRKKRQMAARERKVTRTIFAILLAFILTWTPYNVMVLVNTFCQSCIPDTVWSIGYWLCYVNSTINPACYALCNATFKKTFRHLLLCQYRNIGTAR
Protocol: human FLIPR-based M4 PAM assay (CHO-K1 cells with human M4 receptor and Gaqi5, calcium dye fluorescence)
Recorded conditions: inflection point (IP) of dose response curve, acetylcholine added at 20% of maximum response, read-out: M4 FLIPPR Hu IP
param class (str): category from EC50; see ranges band A (below 30 nM), band B (30 nM to below 70 nM), band C (70 nM or more)

Illustrative cases are given below, each with its answer.
Molecule | Discrete label
N#Cc1ccc(-c2cnn(CC3C[C@H](F)[C@@H](F)C3)c2)c(-c2ccn3ccnc3c2)n1 | band A
N#Cc1ccc(-c2cnn(CC3(F)CCCC3)c2)c(-c2cnc3oc(C4CC4)nc3c2)n1 | band C

Incoming: Hi there! Could you help me figure out the category for Cc1ccc(-c2cnn(C[C@@H]3CC[C@@H](F)C3)c2)c(-c2ccc3cccnc3c2)n1 (single isomer, unassigned) please?
Outgoing: band A

Incoming: Check Cn1cnc2cc(-c3nc(C(F)F)ccc3-c3cnn(C[C@H]4CC[C@H](F)C4)c3)ccc21 too.
Outgoing: band B

Incoming: Check COc1cc2ccc(-c3nc(C)ccc3-c3cnn(CC4CCC5(CC5)C4)c3)cc2nn1 (centres unmarked) too.
Outgoing: band C

Incoming: Check Cc1nc2cc(-c3nc(C#N)ccc3-c3cnn(CC4(F)CCCC4)c3)cnc2n1C too.
Outgoing: band B

Incoming: Check Cn1cnc2cc(-c3nc(C#N)c(F)cc3-c3cnn(CC4(C)CCCC4)c3)ccc21 too.
Outgoing: band A

Incoming: Check Cc1nc(-c2cnc3c(c2)ncn3C)c(-c2cnn(CC3(C)CCCC3)c2)cc1C#N too.
Outgoing: band C

Incoming: Check COc1cc2ccc(-c3nc(F)ccc3-c3cnn(CC4(C)CCCC4)c3)cc2nn1 too.
Outgoing: band A

Incoming: Check N#Cc1ccc(-c2cnn(CC3(F)CCCC3)c2)c(-c2ccn3cc(C(F)F)nc3c2)n1 too.
Outgoing: band A

Incoming: Check CC1(Cn2ncc(-c3ccc(C#N)nc3-c3ccn4ccnc4c3)c2Cl)CCCC1 too.
Outgoing: band C

Incoming: Check N#Cc1ccc(-c2cnn(C[C@H]3CC[C@H](F)C3)c2)c(-c2ccc3cccnc3c2)n1 too.
Outgoing: band B

Incoming: Check COc1cc2ccc(-c3nc(C)ccc3-c3cnn(C(F)C4CCCC4)c3F)cc2nn1 (centres unmarked) too.
Outgoing: band B

Incoming: Check N#Cc1ccc(-c2cnn(CC3CCC(F)C3)c2)c(-c2ccc3cccnc3c2)n1 (single isomer, unassigned) too.
Outgoing: band B

Incoming: Check N#Cc1ccc(-c2cnn(CC3(F)CCCC3)c2)c(-c2ccn3cc(C(F)(F)F)nc3c2)n1 too.
Outgoing: band A

Incoming: Check Cn1cnc2cc(-c3nc(C(F)F)ccc3-c3cnn(CC4(F)CCCC4)c3)cnc21 too.
Outgoing: band C

Incoming: Check CC1(Cn2cc(-c3ccc(C#N)nc3-c3ccn4nccc4c3)cn2)CCCC1 too.
Outgoing: band C

Incoming: Check Cc1cn2ccc(-c3nc(C#N)ccc3-c3cnn(CC4(F)CCCC4)c3)cc2n1 too.
Outgoing: band A

Incoming: Check Cc1nnc2cc(-c3nc(C#N)c(F)cc3-c3cnn(CC4(F)CCCC4)c3)ccn12 too.
Outgoing: band B

Incoming: Check COc1cc2ccc(-c3nc(C(F)F)ccc3-c3cnn(C[C@@H]4CC[C@@H](F)C4)c3)cc2nn1 too.
Outgoing: band B

Incoming: Check Cc1cn2ccc(-c3nc(Cl)ccc3-c3cnn(CC4(C)CCCC4)c3)cc2n1 too.
Outgoing: band A

Incoming: Check Cc1nc2cc(-c3nc(C#N)ccc3-c3cnn(CC4(F)CCCC4)c3)ccc2n1C too.
Outgoing: band B

Incoming: Check Cc1nc2cc(-c3nc(C#N)ccc3-c3cnn(CC4(C)CCCC4)c3)cnc2o1 too.
Outgoing: band B

Incoming: Check CC1(Cn2cc(-c3ccc(C#N)nc3-c3ccc4cc(CO)nnc4c3)cn2)CCCC1 too.
Outgoing: band B
